meta.source: patent US9174948B2

Test: Chelator tissue distribution in rodents
Format: in vivo, rat (male Sprague-Dawley)
Settings: rats, sc, 300 μmol/kg, 4 h
Procedure: Collection of Tissue Distribution Samples from Rodents: Male Sprague-Dawley rats (250-350 g) were given a single sc injection of the monosodium salts of 6 and 9 prepared as described above at a dose of 300 μmol/kg. […] The concentrations were calculated from the peak area fitted to calibration curves by nonweighted least-squares linear regression with Rainin Dynamax HPLC Method Manager software (Rainin Instrument Co.).
measured property: kidney concentration (nmol/g wet weight)

>>> data_value("COCCOCCOCCOc1ccc(C2=N[C@@](C)(C(=O)O)CS2)c(O)c1")
34
>>> data_value("COCCOCCOCCOc1ccc(O)c(C2=N[C@@](C)(C(=O)O)CS2)c1")
116

[a] COCCOCCOCCOc1cccc(C2=N[C@@](C)(C(=O)O)CS2)c1O
[b] C[C@]1(C(=O)O)CSC(c2ccc(O)cc2O)=N1
Q: // pick min by kidney concentration: a , b Respond with the label that goes with your answer.
A: b

====

Test: Chelator tissue distribution in rodents
Assay type: in vivo, rat (male Sprague-Dawley)
Settings: male, Sprague-Dawley, rat, plasma; rats, sc, 300 μmol/kg, 0.5 h
measured property: concentration at 0.5 h (µM)

[1] COCCOCCOCCOc1ccc(O)c(C2=N[C@@](C)(C(=O)O)CS2)c1
[2] COCCOCCOCCOc1ccc(C2=N[C@@](C)(C(=O)O)CS2)c(O)c1
[3] COCCOCCOCCOc1cccc(C2=N[C@@](C)(C(=O)O)CS2)c1O
Q: Highest to lowest concentration at 0.5 h: rank the entries shown above. Field: ranking. Enter the labels in the order requested.
A: 1, 2, 3

====

System: Iron-Overloaded Cebus apella Primates
Experiment: Chelator-induced iron clearance in iron-overloaded Cebus apella primates
Assay type: in vivo
Settings: po, 75 μmol/kg, stool/urine
This section presents compounds with their documented relative percentages of the iron excreted in the stool and urine values.

>>> data_value("COCCOCCOCCOc1ccc(O)c(C2=N[C@@](C)(C(=O)O)CS2)c1 [Compound 6]")
"56/44"

Q: Give the value of relative percentages of the iron excreted in the stool and urine reported for the following: COCCOCCOCCOc1cccc(C2=N[C@@](C)(C(=O)O)CS2)c1O [drawing 20]
A: 72/28

Q: Identify the reported relative percentages of the iron excreted in the stool and urine for the following entry. COCCOCCOCCOc1cccc(C2=N[C@@](C)(C(=O)O)CS2)c1O [Compound 9]
A: 72/28

Q: Please indicate relative percentages of the iron excreted in the stool and urine recorded for COCCOCCOCCOc1ccc(O)c(C2=N[C@@](C)(C(=O)O)CS2)c1 [drawing 17]
A: 56/44

====

Assay: Chelator tissue distribution in rodents
Type: in vivo, rat (male Sprague-Dawley)
Conditions: rats, sc, 300 μmol/kg, 0.5 h
measured property: kidney concentration (nmol/g wet weight)

>>> data_value("C[C@]1(C(=O)O)CSC(c2ccc(O)cc2O)=N1 [Compound 1]")
361

[A] COCCOCCOCCOc1cccc(C2=N[C@@](C)(C(=O)O)CS2)c1O [Compound 9]
[B] COCCOCCOCCOc1ccc(O)c(C2=N[C@@](C)(C(=O)O)CS2)c1 [Compound 6]
Q: Which numeric kidney concentration is bigger, that of A or that of B ? # respond with the chosen item's label
A: B

====

Experiment: Chelator tissue distribution in rodents
Format: in vivo, rat (male Sprague-Dawley)
Settings: rats, sc, 300 μmol/kg, 1 h
measured property: kidney concentration (nmol/g wet weight)

Guide cases for kidney concentration, answers given:
>>> data_value("COCCOCCOCCOc1cccc(C2=N[C@@](C)(C(=O)O)CS2)c1O")
259
>>> data_value("C[C@]1(C(=O)O)CSC(c2ccc(O)cc2O)=N1")
179

[a] COCCOCCOCCOc1ccc(C2=N[C@@](C)(C(=O)O)CS2)c(O)c1
[b] COCCOCCOCCOc1ccc(O)c(C2=N[C@@](C)(C(=O)O)CS2)c1
Q: // max by kidney concentration over [ a , b ] Choose, then provide that item's label.
A: b

====

Recorded measurements of Iron-Clearing Efficiency (%), one per entry
Tested on: Non-Iron-Overloaded Rodents
Experiment: Chelator-induced iron clearance in non-iron-overloaded, bile duct-cannulated rats
Type: in vivo, rat (male Sprague-Dawley)
Conditions: po, 300 μmol/kg, 48 h sample collection period
Note: unit % is implicit; provide only the numeric part.

>>> data_value("COc1cccc(C2=N[C@@](C)(C(=O)O)CS2)c1O [Compound 8]")
12.4
>>> data_value("COc1cccc(C2=N[C@@](C)(C(=O)O)CS2)c1O [drawing 10]")
12.4

Q: Supply reported Iron-Clearing Efficiency (%) belonging to this compound: COCCOCCOCCOc1cccc(C2=N[C@@](C)(C(=O)O)CS2)c1O [Compound 9]
A: 10.6

Q: Indicate its recorded Iron-Clearing Efficiency (%); the compound in question is COCCOCCOCCOc1cccc(C2=N[C@@](C)(C(=O)O)CS2)c1O [drawing 11]
A: 10.6
